These measurements were taken from PubChem BioAssay (NCI).

Test system: KM12 colon
Assay: NCI-60 one-dose screen, 48 h (100 = growth as untreated, 0 = no growth, -100 = all killed)
Conditions: 10 µM unless noted
The panel holds about 83,000 compounds, 20% with a hit somewhere; the sample as a whole holds those more often.
MEASURE_NAME: growth (%)

[
  {
    "COMPOUND": "C[CH2][Sn]([Cl])([Cl])[CH2]C.Oc1ccccc1C=NCCN=Cc1ccccc1O",
    "MEASURE_NAME": "growth",
    "READOUT_NUMBER": 106
  },
  {
    "COMPOUND": "CCCC[C@H](NC(=O)[C@H]1CCCCN1C)C(=O)N(C)[C@H](C[C@@H](OC(C)=O)c1nc(C(=O)N[C@@H](Cc2ccccc2)C[C@H](C)C(=O)OCC)cs1)C(C)C",
    "MEASURE_NAME": "growth",
    "READOUT_NUMBER": 13.1
  },
  {
    "COMPOUND": "COC(=O)CC12CC(NC(=O)c3csc([C@@H](C[C@H](C(C)C)N(C)C(=O)[C@@H](NC(=O)[C@H]4CCCCN4C)C(C)C)OC(C)=O)n3)(C1)C2",
    "MEASURE_NAME": "growth",
    "READOUT_NUMBER": 11.1
  },
  {
    "COMPOUND": "CC12CCC=CC1CCC1C2CCC2(C)C(c3ccc(=O)oc3)CCC12O (stereo not drawn)",
    "MEASURE_NAME": "growth",
    "READOUT_NUMBER": -55.7
  },
  {
    "COMPOUND": "Cc1c2cc(Cl)c3ccccc3c2c[n+]2ccccc12",
    "MEASURE_NAME": "growth",
    "READOUT_NUMBER": 39.7
  },
  {
    "COMPOUND": "CCCCCCCCC(CO)NCCc1ccccc1 (stereo not drawn)",
    "MEASURE_NAME": "growth",
    "READOUT_NUMBER": 99.9
  },
  {
    "COMPOUND": "Clc1cc(N2CC2)nc(N2CC2)n1",
    "MEASURE_NAME": "growth",
    "READOUT_NUMBER": 97.3
  },
  {
    "COMPOUND": "CC(C)[C@]12O[C@H]1[C@@H]1O[C@]13[C@]1(O[C@H]1C[C@H]1c4c(C(=O)c5ccccc5)oc(OC(=O)c5ccccc5)c4CC[C@@]13C)[C@@H]2O",
    "MEASURE_NAME": "growth",
    "READOUT_NUMBER": -15.7
  }
]

###

Test system: NCI-H23 lung
Assay: NCI-60 one-dose screen, 48 h (100 = growth as untreated, 0 = no growth, -100 = all killed)
Conditions: 10 µM unless noted
About 83,000 compounds went through this panel and 20% of them were active in at least one assay; those are over-represented in the sample as a whole.
hey, just use T if measured growth is less than 70%, otherwise F

[
  {
    "COMPOUND": "CCCCCCCC[n+]1ccc2ccccc2c1",
    "QUALITATIVE_LABEL": "T"
  },
  {
    "COMPOUND": "CCN(CCO)C(Cc1ccccc1)c1ccccc1 (stereo unspecified)",
    "QUALITATIVE_LABEL": "F"
  },
  {
    "COMPOUND": "COc1ccc(/C=C\\c2cc(OC)c(OC)c(OC)c2)cc1NC(=O)/C=C/c1ccc(OC)c(OC)c1",
    "QUALITATIVE_LABEL": "T"
  },
  {
    "COMPOUND": "COc1ccc2c(c1)c(C1(O)CC(CSC#N)OC1=O)cn2C(=O)c1ccc(Cl)cc1 (stereo unspecified)",
    "QUALITATIVE_LABEL": "F"
  },
  {
    "COMPOUND": "COc1cc(C=Nc2cccc(Br)c2)ccc1N(CCCl)CCCl",
    "QUALITATIVE_LABEL": "F"
  },
  {
    "COMPOUND": "CCN(CC)CCOC(=O)C(OC(C)C)(c1ccccc1)c1ccccc1",
    "QUALITATIVE_LABEL": "F"
  }
]

###

System: UACC-62 melanoma
Test: NCI-60 one-dose screen, 48 h (100 = growth as untreated, 0 = no growth, -100 = all killed)
Conditions: 10 µM unless noted
This is part of a sample that, as a whole, favours compounds with a hit. Of some 83,000 tested, about 20% had one in any assay.
This listing pairs molecules with measured growth.
MEASURE_NAME: growth (%)

[
  {
    "MOLECULE": "COc1cccc2c1c(C(=O)C(=O)Nc1cc(C)no1)cn2Cc1ccc(F)cc1",
    "TARGET_ENTITY": "UACC-62 melanoma",
    "MEASURE_NAME": "growth",
    "READOUT_NUMBER": 38.7
  },
  {
    "MOLECULE": "COc1cccc2c1c(C(=O)c1ccco1)cn2Cc1ccc(F)cc1",
    "TARGET_ENTITY": "UACC-62 melanoma",
    "MEASURE_NAME": "growth",
    "READOUT_NUMBER": 78.3
  },
  {
    "MOLECULE": "C/C1=C/C(=O)O[C@@H]2C[C@@H](CC[C@H](C)/C=C\\C=C\\CC1)O[C@@](O)([C@@H]1CSC(=O)N1CO)C2",
    "TARGET_ENTITY": "UACC-62 melanoma",
    "MEASURE_NAME": "growth",
    "READOUT_NUMBER": 29.2
  },
  {
    "MOLECULE": "CC(C)(C)N1CC1C#N (stereo unspecified)",
    "TARGET_ENTITY": "UACC-62 melanoma",
    "MEASURE_NAME": "growth",
    "READOUT_NUMBER": 104
  },
  {
    "MOLECULE": "CCCCCSC1C2C(=O)C(Br)=CC13CCNc1c(O)c4c5c(c13)=[N+]2CCC=5C=N4 (stereo unspecified)",
    "TARGET_ENTITY": "UACC-62 melanoma",
    "MEASURE_NAME": "growth",
    "READOUT_NUMBER": -51.2
  },
  {
    "MOLECULE": "CC(=O)OC1C(OC/C2=C/C3[C@@H](C(C)C)CC=C(C)[C@@H]3CC(OC(=O)/C=C/c3cn(C)cn3)[C@]3(C)C=C[C@@]2(O)O3)OCC(O)C1O (stereo partly specified)",
    "TARGET_ENTITY": "UACC-62 melanoma",
    "MEASURE_NAME": "growth",
    "READOUT_NUMBER": 26.5
  },
  {
    "MOLECULE": "COC(=O)N[C@H]1CCc2c(Br)c(OC)c(OC)c(OC)c2-c2ccc(SC)c(=O)cc21",
    "TARGET_ENTITY": "UACC-62 melanoma",
    "MEASURE_NAME": "growth",
    "READOUT_NUMBER": 38.6
  },
  {
    "MOLECULE": "COC(=O)[C@@H](C)C[C@H](Cc1ccccc1)NC(=O)c1csc([C@@H](C[C@H](C(C)C)N(C)C(=O)[C@@H](NC(=O)[C@H]2CCCCN2C)c2ccc(F)cc2)OC(C)=O)n1",
    "TARGET_ENTITY": "UACC-62 melanoma",
    "MEASURE_NAME": "growth",
    "READOUT_NUMBER": 40
  },
  {
    "MOLECULE": "CCC(CC)CC1(C)CC2(C)CCOC2OO1 (stereo unspecified)",
    "TARGET_ENTITY": "UACC-62 melanoma",
    "MEASURE_NAME": "growth",
    "READOUT_NUMBER": 95.4
  },
  {
    "MOLECULE": "COc1ccc(/C=C\\c2cc(OC)c(OC)c(OC)c2)c(NS(=O)(=O)c2ccc(F)cc2)c1O",
    "TARGET_ENTITY": "UACC-62 melanoma",
    "MEASURE_NAME": "growth",
    "READOUT_NUMBER": 40.1
  },
  {
    "MOLECULE": "CCOC(=O)[C@@H](C)C[C@H](Cc1ccccc1)NC(=O)c1csc([C@@H](C[C@H](C(C)C)N(C)C(=O)[C@@H](NC(=O)[C@H]2CCCCN2C)C(C)(C)C)OC(C)=O)n1",
    "TARGET_ENTITY": "UACC-62 melanoma",
    "MEASURE_NAME": "growth",
    "READOUT_NUMBER": 27
  },
  {
    "MOLECULE": "COC(=O)C12CC(NC(=O)c3csc([C@@H](C[C@H](C(C)C)N(C)C(=O)[C@@H](NC(=O)[C@H]4CCCCN4C)C4CC4)OC(C)=O)n3)(C1)C2",
    "TARGET_ENTITY": "UACC-62 melanoma",
    "MEASURE_NAME": "growth",
    "READOUT_NUMBER": 58.6
  },
  {
    "MOLECULE": "COc1ccc(C/C(C)=C(\\c2ccc(OCCN3CCOCC3)cc2)c2ccc(OC(=O)Cc3ccccc3)cc2)cc1",
    "TARGET_ENTITY": "UACC-62 melanoma",
    "MEASURE_NAME": "growth",
    "READOUT_NUMBER": -87.7
  },
  {
    "MOLECULE": "COc1cc(NCCCN=C(N)N)c2ncccc2c1",
    "TARGET_ENTITY": "UACC-62 melanoma",
    "MEASURE_NAME": "growth",
    "READOUT_NUMBER": 90.3
  },
  {
    "MOLECULE": "COC(=O)[C@@H](C)C[C@H](Cc1ccccc1)NC(=O)c1csc([C@@H](C[C@H](C(C)C)N(C)C(=O)[C@@H](NC(=O)[C@H]2CCCCN2C)C2CCCCC2)OC(C)=O)n1",
    "TARGET_ENTITY": "UACC-62 melanoma",
    "MEASURE_NAME": "growth",
    "READOUT_NUMBER": 36.3
  },
  {
    "MOLECULE": "C[C@]12CCc3sc(-c4ccccc4O)nc3C1=CC[C@@H]1[C@@H]2CC[C@]2(C)C(=O)CC[C@@H]12",
    "TARGET_ENTITY": "UACC-62 melanoma",
    "MEASURE_NAME": "growth",
    "READOUT_NUMBER": 94.3
  }
]
